target: Leucine-rich repeat serine/threonine-protein kinase 2 (Homo sapiens, UniProt Q5S007, G2019S); assay: Inhibition of LRRK2 G2019S mutant (unknown origin)
Sequence (Q5S007 whole entry G2019S): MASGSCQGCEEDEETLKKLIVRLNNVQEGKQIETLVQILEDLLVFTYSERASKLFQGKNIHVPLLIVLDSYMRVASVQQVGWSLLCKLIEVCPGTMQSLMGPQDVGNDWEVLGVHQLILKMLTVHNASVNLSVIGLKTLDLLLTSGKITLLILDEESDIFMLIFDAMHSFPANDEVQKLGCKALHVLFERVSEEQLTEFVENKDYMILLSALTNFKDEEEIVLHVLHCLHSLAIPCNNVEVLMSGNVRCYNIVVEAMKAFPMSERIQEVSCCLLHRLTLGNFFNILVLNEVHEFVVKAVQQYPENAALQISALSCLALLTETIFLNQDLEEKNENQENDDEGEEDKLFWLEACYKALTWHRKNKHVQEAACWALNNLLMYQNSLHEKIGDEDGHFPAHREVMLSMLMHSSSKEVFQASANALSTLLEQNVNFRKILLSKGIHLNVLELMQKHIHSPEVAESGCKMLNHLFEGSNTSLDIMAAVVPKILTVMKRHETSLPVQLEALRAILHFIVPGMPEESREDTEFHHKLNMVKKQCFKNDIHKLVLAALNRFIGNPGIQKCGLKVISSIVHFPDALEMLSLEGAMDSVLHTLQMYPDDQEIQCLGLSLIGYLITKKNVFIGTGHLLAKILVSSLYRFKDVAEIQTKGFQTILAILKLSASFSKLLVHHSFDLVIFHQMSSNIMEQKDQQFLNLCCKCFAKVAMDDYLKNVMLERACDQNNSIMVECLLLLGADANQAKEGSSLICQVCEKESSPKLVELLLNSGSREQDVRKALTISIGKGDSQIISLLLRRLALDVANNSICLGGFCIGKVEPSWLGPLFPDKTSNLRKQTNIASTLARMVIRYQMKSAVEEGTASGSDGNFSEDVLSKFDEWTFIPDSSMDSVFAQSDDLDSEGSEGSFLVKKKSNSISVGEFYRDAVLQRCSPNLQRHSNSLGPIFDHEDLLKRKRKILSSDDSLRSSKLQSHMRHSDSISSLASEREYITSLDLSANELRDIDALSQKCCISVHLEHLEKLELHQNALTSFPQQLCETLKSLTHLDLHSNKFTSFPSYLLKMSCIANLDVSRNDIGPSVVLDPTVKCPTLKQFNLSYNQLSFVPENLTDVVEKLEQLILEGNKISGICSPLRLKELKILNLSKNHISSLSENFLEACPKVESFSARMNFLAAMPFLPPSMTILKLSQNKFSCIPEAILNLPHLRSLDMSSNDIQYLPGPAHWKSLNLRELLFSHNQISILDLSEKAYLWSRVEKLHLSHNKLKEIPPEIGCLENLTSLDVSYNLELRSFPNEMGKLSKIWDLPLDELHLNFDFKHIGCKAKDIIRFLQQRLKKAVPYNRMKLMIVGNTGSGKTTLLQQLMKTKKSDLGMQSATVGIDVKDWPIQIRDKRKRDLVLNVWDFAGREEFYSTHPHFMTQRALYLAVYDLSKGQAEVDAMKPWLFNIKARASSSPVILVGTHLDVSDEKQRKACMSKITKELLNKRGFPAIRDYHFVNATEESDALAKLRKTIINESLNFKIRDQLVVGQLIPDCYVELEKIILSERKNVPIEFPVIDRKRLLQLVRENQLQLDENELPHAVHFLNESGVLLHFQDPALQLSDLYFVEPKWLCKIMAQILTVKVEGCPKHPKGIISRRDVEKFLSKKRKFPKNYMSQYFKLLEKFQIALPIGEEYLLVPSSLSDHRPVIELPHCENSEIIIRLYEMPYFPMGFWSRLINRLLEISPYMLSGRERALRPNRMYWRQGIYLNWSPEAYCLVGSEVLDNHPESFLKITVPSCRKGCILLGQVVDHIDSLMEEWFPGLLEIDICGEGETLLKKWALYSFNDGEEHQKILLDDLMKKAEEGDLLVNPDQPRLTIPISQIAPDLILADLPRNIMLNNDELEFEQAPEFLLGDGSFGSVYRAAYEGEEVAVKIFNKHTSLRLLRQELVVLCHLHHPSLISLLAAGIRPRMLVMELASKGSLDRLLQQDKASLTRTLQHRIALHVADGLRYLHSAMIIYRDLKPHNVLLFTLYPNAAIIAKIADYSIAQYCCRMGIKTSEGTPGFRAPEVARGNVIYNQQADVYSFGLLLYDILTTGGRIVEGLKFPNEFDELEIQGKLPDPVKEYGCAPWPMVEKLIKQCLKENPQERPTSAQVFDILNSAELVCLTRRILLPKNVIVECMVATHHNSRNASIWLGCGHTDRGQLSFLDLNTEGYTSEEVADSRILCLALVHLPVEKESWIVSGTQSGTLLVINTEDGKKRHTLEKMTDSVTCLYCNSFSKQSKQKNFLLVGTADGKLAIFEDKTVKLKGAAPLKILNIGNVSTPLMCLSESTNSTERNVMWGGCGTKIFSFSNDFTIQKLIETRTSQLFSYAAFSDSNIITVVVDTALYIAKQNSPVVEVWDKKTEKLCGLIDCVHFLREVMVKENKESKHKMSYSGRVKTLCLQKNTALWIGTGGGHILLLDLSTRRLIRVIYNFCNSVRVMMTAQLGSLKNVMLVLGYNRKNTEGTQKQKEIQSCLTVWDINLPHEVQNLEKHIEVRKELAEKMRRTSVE
compounds and their reported IC50
Kindly format the answer as number then unit.

# count of solved cases: 2
- compound: "CC(c1ccc(NC(=O)c2cc(C3CC3)[nH]n2)cc1)N1CCOCC1 (stereo not drawn)"
  reported property: "IC50"
  obs value: "1900 nM"
- compound: "O=C(NCCO)c1ccc(Nc2nc(-c3ccccc3)c3cc(Cl)ccc3n2)cc1"
  reported property: "IC50"
  obs value: "2000 nM"

Shifting focus to the compound that follows.
Qu. Dear colleague, I am looking for the recorded IC50 of the following compound: "Cc1ccc(NC(=O)c2ccc(CN3CCNCC3)cc2)cc1Nc1nccc(-c2cccnc2)n1"
Ans. 3300 nM
